Data origin: patent US9145425B2

- System: Pseudomonas aeruginosa SR24
- assayName: Minimum Inhibitory Concentration (MIC), agar plate incubation, Japan Society for Chemotherapy standard method
- Type: cell-based
- cond: Pseudomonas aeruginosa SR24; no enzyme, ceftazidime sensitive strain; 1000 cfu/spot; sensitive disc medium
- Method: The antimicrobial activity in vitro of the present compound (I) was determined. Measurement of Minimum Inhibitory Concentration (MIC, μg/ml) was conducted according to the standard method of the Japan Society for Chemotherapy and the amount of bacteria for inoculation was 1000 cfu/spot, and sensitive disc medium was used as the test medium, and conducted using agar plate incubation. In the tables, the unit of the values of inhibitory activity is μg/ml.
experimentalEndpoint: Minimum Inhibitory Concentration (MIC) (µg/mL)
One number for each entry, in µg/mL.

These solved cases illustrate the format of a correct answer.
- compound: "C[N+]1(CC2=C(C(=O)[O-])N3C(=O)C(NC(=O)C(=NOC(CC(=O)O)C(=O)[O-])c4csc(N)n4)C3SC2)C2CCC1CC(NC(=O)c1ccc(O)c(O)c1C(F)(F)F)C2.[Na+] (centres unmarked)"
  assayTarget: "Pseudomonas aeruginosa SR24"
  testValue: 0.25
- compound: "CCC(ON=C(C(=O)NC1C(=O)N2C(C(=O)[O-])=C(C[N+]34CCCC3CN(C(=O)c3ccc(O)c(O)c3Cl)CC4)CSC12)c1csc(N)n1)C(=O)[O-].[Na+] (centres unmarked)"
  assayTarget: "Pseudomonas aeruginosa SR24"
  testValue: 0.125
- compound: "C[N+]1(CC2=C(C(=O)[O-])N3C(=O)[C@@H](NC(=O)/C(=N\\O[C@@H](CC(=O)[O-])C(=O)[O-])c4csc(N)n4)[C@H]3SC2)[C@@H]2CC[C@H]1C[C@@H](NC(=O)c1cc(O)c(O)c(F)c1)C2.[Na+].[Na+] (some centres unmarked)"
  assayTarget: "Pseudomonas aeruginosa SR24"
  testValue: 0.063

I would be grateful if you could provide Minimum Inhibitory Concentration (MIC) for each of the following entries.
1. CC(C)(ON=C(C(=O)NC1C(=O)N2C(C(=O)[O-])=C(C[N+]34CCCC3CN(C(=O)c3ccc(O)c(O)c3Cl)CC4)CSC12)c1csc(N)n1)C(=O)[O-].[Na+] (centres unmarked) [Compound I-31]
2. Nc1nc(C(=NOC(CC(=O)[O-])C(=O)[O-])C(=O)NC2C(=O)N3C(C(=O)[O-])=C(C[N+]45CCCC4CN(C(=O)c4cc(O)c(O)c(F)c4)CC5)CSC23)cs1.[Na+].[Na+] (centres unmarked)

[0.063, 0.125]
